Assay: Plasma pharmacokinetics after IV, PO or SC administration
Conditions: CD-1, mouse, in vivo, iv, 2 mg/kg, T1/2, IV 2 mg/kg, mean
OBSERVATION TYPE: half-life (min)
# value in min; strip the unit string

query: Bench note: what half-life did CC(N)Cc1c[nH]c2ccc(OCc3cccs3)cc12 (stereo not shown) show?
result: 55.8

###

Experiment: Plasma pharmacokinetics after IV, PO or SC administration
Conditions: CD-1, mouse, in vivo, sc, 10 mg/kg, Bioavailability, SC 10 mg/kg
OBSERVATION TYPE: bioavailability

query: Bench note: what bioavailability did CC(N)Cc1c[nH]c2ccc(OCc3cccs3)cc12 (stereo not shown) show?
result: 35%

###

Test: Plasma pharmacokinetics after IV, PO or SC administration
Details: CD-1, mouse, plasma, iv, 2 mg/kg, AUC0-inf, IV 2 mg/kg, individual mice n1-n3
OBSERVATION TYPE: AUC0-inf

query: Bench note: what AUC0-inf did CC(N)Cc1c[nH]c2ccc(OCc3cccs3)cc12 (stereo not shown) [BW] show?
result: 289 ng·h/mL

###

Test: Plasma pharmacokinetics after IV, PO or SC administration
Conditions: CD-1, mouse, plasma, iv, 2 mg/kg, C0, IV 2 mg/kg, mean
OBSERVATION TYPE: C0 (ng/mL)
# value in ng/mL; strip the unit string

query: Bench note: what C0 did CC(N)Cc1c[nH]c2ccc(OCc3cccs3)cc12 (stereo not shown) show?
result: 354

###

Experiment: Plasma pharmacokinetics after IV, PO or SC administration
Conditions: CD-1, mouse, plasma, iv, 2 mg/kg, AUC0-inf, IV 2 mg/kg, mean
OBSERVATION TYPE: AUC0-inf (ng·h/mL)
# value in ng·h/mL; strip the unit string

query: Bench note: what AUC0-inf did CC(N)Cc1c[nH]c2ccc(OCc3cccs3)cc12 (stereo not shown) [BW] show?
result: 236

###

Experiment: Plasma and brain distribution after single IP injection
Conditions: CD-1, mouse, in vivo, 10 mg/kg
OBSERVATION TYPE: Tmax

query: Bench note: what Tmax did CC(N)Cc1c[nH]c2ccc(OCc3cccs3)cc12 (stereo not shown) [BW] show?
result: ~30 min

###

Target: 5-HT1B (Homo sapiens, UniProt P28222)
Construct: Euroscreen FAST (contract assay)
Sequence (P28222 whole entry, species assumed): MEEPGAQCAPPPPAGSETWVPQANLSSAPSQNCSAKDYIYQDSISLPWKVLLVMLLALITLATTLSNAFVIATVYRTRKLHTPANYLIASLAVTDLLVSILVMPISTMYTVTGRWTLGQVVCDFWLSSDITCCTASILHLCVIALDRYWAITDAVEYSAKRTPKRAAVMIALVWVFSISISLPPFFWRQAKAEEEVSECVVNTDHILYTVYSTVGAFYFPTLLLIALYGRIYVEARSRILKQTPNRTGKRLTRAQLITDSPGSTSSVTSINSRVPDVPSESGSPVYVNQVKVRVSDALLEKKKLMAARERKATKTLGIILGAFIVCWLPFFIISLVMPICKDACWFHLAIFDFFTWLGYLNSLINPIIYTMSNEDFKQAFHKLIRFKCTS
Experiment: Radioligand binding competition dose-response (Euroscreen), 5-HT1B
OBSERVATION TYPE: pIC50
Hey, just a heads up that pIC50 is the negative log base 10 of the concentration in molar.

query: Lab request: please report pIC50 under test system 5-HT1B (Homo sapiens, UniProt P28222) for CC(N)Cc1c[nH]c2ccc(OCc3cccs3)cc12 (stereo not shown)
result: 6.74

###

Assay: Plasma pharmacokinetics after IV, PO or SC administration
Details: CD-1, mouse, in vivo, sc, 10 mg/kg, T1/2, SC 10 mg/kg, mean
OBSERVATION TYPE: half-life (h)
# value in h; strip the unit string

query: Bench note: what half-life did CC(N)Cc1c[nH]c2ccc(OCc3cccs3)cc12 (stereo not shown) show?
result: 1.37

###

Molecular target: DAT (Homo sapiens, UniProt Q01959)
Construct: Euroscreen FAST (contract assay)
Sequence (Q01959 whole entry, species assumed): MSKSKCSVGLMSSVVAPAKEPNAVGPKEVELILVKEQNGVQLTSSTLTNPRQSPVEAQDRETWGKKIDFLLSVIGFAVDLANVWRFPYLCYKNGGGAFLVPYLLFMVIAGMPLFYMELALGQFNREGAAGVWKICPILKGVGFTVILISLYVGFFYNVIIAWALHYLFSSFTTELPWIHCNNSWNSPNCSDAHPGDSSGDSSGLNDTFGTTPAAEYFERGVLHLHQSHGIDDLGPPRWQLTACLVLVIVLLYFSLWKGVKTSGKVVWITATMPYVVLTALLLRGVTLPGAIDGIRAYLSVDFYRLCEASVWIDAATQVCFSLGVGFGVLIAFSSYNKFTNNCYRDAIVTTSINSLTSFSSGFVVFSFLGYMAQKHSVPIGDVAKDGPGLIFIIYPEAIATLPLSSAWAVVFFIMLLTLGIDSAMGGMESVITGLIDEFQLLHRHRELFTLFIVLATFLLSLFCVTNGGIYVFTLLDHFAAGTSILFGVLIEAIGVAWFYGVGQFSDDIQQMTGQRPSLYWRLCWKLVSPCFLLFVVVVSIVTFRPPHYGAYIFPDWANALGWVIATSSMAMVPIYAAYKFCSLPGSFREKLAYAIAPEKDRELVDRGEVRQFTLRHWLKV
Assay: Radioligand binding competition dose-response (Euroscreen), dopamine transporter
OBSERVATION TYPE: IC50 (µM)
# value in µM; strip the unit string

query: Bench note: what IC50 did CC(N)Cc1c[nH]c2ccc(OCc3cccs3)cc12 (stereo not shown) show?
result: 0.741

###

Test: Plasma pharmacokinetics after IV, PO or SC administration
Conditions: CD-1, mouse, plasma, po, 10 mg/kg, Tmax, PO 10 mg/kg, mean
OBSERVATION TYPE: Tmax (min)
# value in min; strip the unit string

query: Bench note: what Tmax did CC(N)Cc1c[nH]c2ccc(OCc3cccs3)cc12 (stereo not shown) show?
result: 34.8

###

Test: Plasma and brain distribution after single IP injection
Settings: CD-1, mouse, in vivo, 10 mg/kg
OBSERVATION TYPE: concentration at 4 h (ng/g)
# value in ng/g; strip the unit string

query: Bench note: what concentration at 4 h did CC(N)Cc1c[nH]c2ccc(OCc3cccs3)cc12 (stereo not shown) [BW] show?
result: 860

###

Experiment: Plasma pharmacokinetics after IV, PO or SC administration
Settings: CD-1, mouse, plasma, iv, 2 mg/kg, C0, IV 2 mg/kg, individual mice n1-n3
OBSERVATION TYPE: C0
Field note: include the unit after the figure.

query: Bench note: what C0 did CC(N)Cc1c[nH]c2ccc(OCc3cccs3)cc12 (stereo not shown) [BW] show?
result: 406 ng/mL

###

Assay: Plasma pharmacokinetics after IV, PO or SC administration
Details: CD-1, mouse, in vivo, iv, 2 mg/kg, T1/2, IV 2 mg/kg, individual mice n1-n3
OBSERVATION TYPE: half-life
Field note: include the unit after the figure.

query: Bench note: what half-life did CC(N)Cc1c[nH]c2ccc(OCc3cccs3)cc12 (stereo not shown) [BW] show?
result: 58.8 min

###

Test: Plasma pharmacokinetics after IV, PO or SC administration
Settings: CD-1, mouse, plasma, sc, 10 mg/kg, Tmax, SC 10 mg/kg, mean
OBSERVATION TYPE: Tmax
Field note: include the unit after the figure.

query: Bench note: what Tmax did CC(N)Cc1c[nH]c2ccc(OCc3cccs3)cc12 (stereo not shown) [BW] show?
result: 11.4 min

###

Target: 5-HT7 (Homo sapiens)
Sequence (P34969 whole entry, species assumed): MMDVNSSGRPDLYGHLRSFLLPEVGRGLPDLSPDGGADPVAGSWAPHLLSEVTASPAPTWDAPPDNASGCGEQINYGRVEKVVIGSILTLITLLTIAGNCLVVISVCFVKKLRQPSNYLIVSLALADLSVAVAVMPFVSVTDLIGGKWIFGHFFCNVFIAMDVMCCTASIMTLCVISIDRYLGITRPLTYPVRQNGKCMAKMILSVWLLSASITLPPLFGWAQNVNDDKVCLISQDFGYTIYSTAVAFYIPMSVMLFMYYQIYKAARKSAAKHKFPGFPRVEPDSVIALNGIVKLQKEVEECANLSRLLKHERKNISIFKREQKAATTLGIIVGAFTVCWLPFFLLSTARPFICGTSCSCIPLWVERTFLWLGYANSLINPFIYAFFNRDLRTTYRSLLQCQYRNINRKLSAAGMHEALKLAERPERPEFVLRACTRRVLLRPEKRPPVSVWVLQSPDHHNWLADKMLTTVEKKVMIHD
OBSERVATION TYPE: IC50
Field note: include the unit after the figure.

query: Bench note: what IC50 did CC(N)Cc1c[nH]c2ccc(OCc3cccs3)cc12 (stereo not shown) show?
result: 1020 nM

###

Assay: Plasma pharmacokinetics after IV, PO or SC administration
Settings: CD-1, mouse, in vivo, po, 10 mg/kg, T1/2, PO 10 mg/kg, mean
OBSERVATION TYPE: half-life (h)
# value in h; strip the unit string

query: Bench note: what half-life did CC(N)Cc1c[nH]c2ccc(OCc3cccs3)cc12 (stereo not shown) [BW] show?
result: 2.55

###

Molecular target: 5-HT1A (Homo sapiens, UniProt P08908)
Sequence (P08908 1-422): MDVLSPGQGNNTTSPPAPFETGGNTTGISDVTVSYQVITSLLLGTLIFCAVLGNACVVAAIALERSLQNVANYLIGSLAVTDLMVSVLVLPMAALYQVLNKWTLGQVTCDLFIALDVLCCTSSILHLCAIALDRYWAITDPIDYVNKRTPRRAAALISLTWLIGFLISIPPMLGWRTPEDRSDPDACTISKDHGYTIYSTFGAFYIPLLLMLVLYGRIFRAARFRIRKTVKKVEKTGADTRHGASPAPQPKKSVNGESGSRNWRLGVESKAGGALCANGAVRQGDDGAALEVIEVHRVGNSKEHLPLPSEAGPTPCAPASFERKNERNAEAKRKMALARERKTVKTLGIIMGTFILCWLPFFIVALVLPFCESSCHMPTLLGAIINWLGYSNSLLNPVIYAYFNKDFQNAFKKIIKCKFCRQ
OBSERVATION TYPE: pIC50
Hey, just a heads up that pIC50 is the negative log base 10 of the concentration in molar.

query: Lab request: please report pIC50 under test system 5-HT1A (Homo sapiens, UniProt P08908) for CC(N)Cc1c[nH]c2ccc(OCc3cccs3)cc12 (stereo not shown)
result: 6.23

###

Experiment: Plasma pharmacokinetics after IV, PO or SC administration
Conditions: CD-1, mouse, plasma, sc, 10 mg/kg, AUC0-inf, SC 10 mg/kg, individual mice n1-n3
OBSERVATION TYPE: AUC0-inf (ng·h/mL)
# value in ng·h/mL; strip the unit string

query: Bench note: what AUC0-inf did CC(N)Cc1c[nH]c2ccc(OCc3cccs3)cc12 (stereo not shown) show?
result: 2030

###

Test: Plasma pharmacokinetics after IV, PO or SC administration
Conditions: CD-1, mouse, in vivo, po, 10 mg/kg, Bioavailability, PO 10 mg/kg
OBSERVATION TYPE: bioavailability (%)
# value in %; strip the unit string

query: Bench note: what bioavailability did CC(N)Cc1c[nH]c2ccc(OCc3cccs3)cc12 (stereo not shown) [BW] show?
result: 4.72

###

Assay: Plasma pharmacokinetics after IV, PO or SC administration
Conditions: CD-1, mouse, plasma, sc, 10 mg/kg, AUC0-inf, SC 10 mg/kg, mean
OBSERVATION TYPE: AUC0-inf (ng·h/mL)
# value in ng·h/mL; strip the unit string

query: Bench note: what AUC0-inf did CC(N)Cc1c[nH]c2ccc(OCc3cccs3)cc12 (stereo not shown) [BW] show?
result: 2070

###

Experiment: Plasma pharmacokinetics after IV, PO or SC administration
Details: CD-1, mouse, plasma, sc, 10 mg/kg, Cmax, SC 10 mg/kg, mean
OBSERVATION TYPE: Cmax (ng/mL)
# value in ng/mL; strip the unit string

query: Bench note: what Cmax did CC(N)Cc1c[nH]c2ccc(OCc3cccs3)cc12 (stereo not shown) show?
result: 1020
